target: A II receptor (Bos taurus); construct: An A II receptor membrane fraction was prepared from bovine adrenal cortex; from tissue; host or cells: bovine adrenal cortex membrane fraction; experiment: Inhibition of binding of angiotensin II to angiotensin receptor (radioreceptor assay); design: species or system bovine; conditions: 1 h; inhibition of 125I-A II binding; compound 1 × 10^−6M; bovine adrenal cortex membrane fraction
Sequence (P25104 whole entry): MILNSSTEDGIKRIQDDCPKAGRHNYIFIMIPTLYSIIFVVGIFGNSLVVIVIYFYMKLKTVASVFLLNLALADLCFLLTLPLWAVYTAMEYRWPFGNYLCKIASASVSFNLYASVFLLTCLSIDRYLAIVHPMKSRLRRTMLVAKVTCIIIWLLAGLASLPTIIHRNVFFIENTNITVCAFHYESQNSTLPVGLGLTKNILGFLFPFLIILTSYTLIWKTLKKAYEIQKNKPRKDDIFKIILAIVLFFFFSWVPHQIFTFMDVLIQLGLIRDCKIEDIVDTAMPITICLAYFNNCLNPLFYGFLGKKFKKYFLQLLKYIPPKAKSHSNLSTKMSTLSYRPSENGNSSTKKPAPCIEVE
So basically: inhibition at 1 µM at 80% or higher? That is fulfilled. Lower than 80%? That is not fulfilled.

• CCOc1nc2cccc(C(=O)OCOC(=O)C(C)C)c2n1Cc1ccc(-c2ccccc2-c2nnn[nH]2)cc1 [Example 53] = fulfilled
• CCCNc1nc2cccc(C(=O)O)c2n1Cc1ccc(-c2ccccc2-c2nnn[nH]2)cc1 [Example 48] = fulfilled
• CCOc1nc2cccc(C(=O)OCc3oc(=O)oc3C)c2n1Cc1ccc(-c2ccccc2-c2nnn[nH]2)cc1 [Example 49] = fulfilled
• CCOc1nc2cccc(C(=O)OCOC(=O)C3CCCC3)c2n1Cc1ccc(-c2ccccc2-c2nnn[nH]2)cc1 [Example 61] = fulfilled
• CCCSc1nc2cccc(C(=O)O)c2n1Cc1ccc(-c2ccccc2-c2nnn[nH]2)cc1 [Example 38] = not fulfilled
• CCCOc1nc2cccc(C(=O)OCC)c2n1Cc1ccc(-c2ccccc2-c2nnn[nH]2)cc1 [Example 30] = not fulfilled
• CCOc1nc2cccc(C(=O)OCOC(=O)CC)c2n1Cc1ccc(-c2ccccc2-c2nnn[nH]2)cc1 [Example 51] = fulfilled
• CCCSc1nc2cccc(C(=O)OCC)c2n1Cc1ccc(-c2ccccc2-c2nnn[nH]2)cc1 [Example 35] = not fulfilled
• CCOc1nc2cccc(C(=O)OC)c2n1Cc1ccc(-c2ccccc2-c2nnn[nH]2)cc1 [Example 39] = fulfilled
• CCOc1nc2cccc(C(=O)OCOC(C)=O)c2n1Cc1ccc(-c2ccccc2-c2nnn[nH]2)cc1 [Example 50] = fulfilled
